All values here come from ChEMBL document CHEMBL3351269.

# Target Entity: Coagulation factor XI (Homo sapiens, UniProt P03951)
# Sequence (P03951 19-387 limits assumed): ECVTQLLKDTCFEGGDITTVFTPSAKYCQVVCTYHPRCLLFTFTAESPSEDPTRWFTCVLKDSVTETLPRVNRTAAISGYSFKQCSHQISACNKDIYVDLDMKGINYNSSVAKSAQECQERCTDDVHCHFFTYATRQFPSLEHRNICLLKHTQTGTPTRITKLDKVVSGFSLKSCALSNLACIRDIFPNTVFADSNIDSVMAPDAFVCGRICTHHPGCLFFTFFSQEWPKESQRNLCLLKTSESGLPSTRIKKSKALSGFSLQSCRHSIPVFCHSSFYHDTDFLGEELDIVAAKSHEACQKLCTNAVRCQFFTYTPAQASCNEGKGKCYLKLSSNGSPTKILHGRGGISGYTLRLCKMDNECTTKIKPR
# Sequence (P03951 388-625 limits assumed): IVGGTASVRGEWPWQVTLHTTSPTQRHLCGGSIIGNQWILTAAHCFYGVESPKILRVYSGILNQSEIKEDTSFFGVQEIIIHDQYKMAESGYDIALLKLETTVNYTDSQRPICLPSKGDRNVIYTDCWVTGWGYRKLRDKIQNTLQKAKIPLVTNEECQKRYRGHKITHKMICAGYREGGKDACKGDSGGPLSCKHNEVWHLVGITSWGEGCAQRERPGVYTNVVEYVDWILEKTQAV
# Assay Text: Inhibition of human coagulation factor 11a using p-nitroaniline as substrate assessed as substrate hydrolysis by spectrophotometrically
# pKi annotations
In plain terms, pKi is the concentration in mol/L turned into minus its base-10 logarithm.

Worked cases, pKi given:
NC[C@H]1CC[C@H](C(=O)N[C@@H](Cc2ccccc2)c2nc(-c3cccc(CC(N)=O)c3)c[nH]2)CC1 | 6.26
NC[C@H]1CC[C@H](C(=O)N[C@@H](Cc2ccccc2)c2nc(-c3ccc(C(N)=O)cc3)c(F)[nH]2)CC1.O=C(O)C(F)(F)F | 8.52
CCOC(=O)Cc1ccc(-c2c[nH]c([C@H](Cc3ccccc3)NC(=O)[C@H]3CC[C@H](CN)CC3)n2)cc1 | 6.31

Reading of pKi for NC[C@H]1CC[C@H](C(=O)N[C@@H](Cc2ccccc2)c2cc(-c3ccccc3)n[nH]2)CC1 with Coagulation factor XI (Homo sapiens, UniProt P03951): 5.16

Reading of pKi for NC[C@H]1CC[C@H](C(=O)N[C@@H](Cc2ccccc2)c2nc(-c3cccc(CC(=O)O)c3)c[nH]2)CC1 with Coagulation factor XI (Homo sapiens, UniProt P03951): 6.56

Reading of pKi for NC[C@H]1CC[C@H](C(=O)N[C@@H](Cc2ccccc2)c2nc(-c3ccc(CC(=O)O)cc3)c[nH]2)CC1 with Coagulation factor XI (Homo sapiens, UniProt P03951): 6.82

Reading of pKi for N#Cc1ccc(-c2c[nH]c([C@H](Cc3ccccc3)NC(=O)[C@H]3CC[C@H](CN)CC3)n2)cc1 with Coagulation factor XI (Homo sapiens, UniProt P03951): 6.64

Reading of pKi for NC[C@H]1CC[C@H](C(=O)N[C@@H](Cc2ccccc2)c2nc(-c3ccc4c(N)n[nH]c4c3)c[nH]2)CC1.O=C(O)C(F)(F)F with Coagulation factor XI (Homo sapiens, UniProt P03951): 8.52

###

# Target Entity: Coagulation factor XI (Homo sapiens, UniProt P03951)
# Assay Text: Inhibition of human coagulation factor 11a using p-nitroaniline as substrate assessed as substrate hydrolysis at 37 degC by spectrophotometrically
Observable: Ki (pM)
Write it as a number; the unit pM goes unstated.

In plain terms, NC[C@H]1CC[C@H](C(=O)N[C@@H](Cc2ccccc2)c2nc(-c3ccc4c(N)n[nH]c4c3)c(Cl)[nH]2)CC1.O=C(O)C(F)(F)F has a documented Ki of 800

###

# Assay Text: Solubility of the compound in 100 mM phosphate buffer at pH 7.4
# Assay type: physicochemical
Observable: solubility

In plain terms, Cl.NC[C@H]1CC[C@H](C(=O)N[C@@H](Cc2ccccc2)c2nc(-c3ccc4c(N)n[nH]c4c3)c(Cl)[nH]2)CC1 has a documented solubility of 946 µg/mL

###

# Assay Text: Inhibition of rabbit coagulation factor 11a using p-nitroaniline as substrate assessed as substrate hydrolysis by spectrophotometrically
# Design: species or system Oryctolagus cuniculus
Observable: pKi
In plain terms, pKi is the concentration in mol/L turned into minus its base-10 logarithm.

In plain terms, NC[C@H]1CC[C@H](C(=O)N[C@@H](Cc2ccccc2)c2nc(-c3ccc4c(N)n[nH]c4c3)c(Cl)[nH]2)CC1.O=C(O)C(F)(F)F has a documented pKi of 9.22
